We begin with a simple list: items and their reported residual activity.
target: MAPK10 (human); assay: radiometric filter-binding kinase assay; conditions: compound 10.0 µM
Field format: number, assumed %, no unit text.

Here are 2 compounds together with their reported answers.
INSERT INTO measurements (compound, target_under_test, assay_readout, observed_measurement) VALUES
  ('CCn1c(-c2nonc2N)nc2cncc(CNC3CCNCC3)c21', 'MAPK10 (human)', 'residual activity', 95),
  ('CCCCCc1ccc(/C=C/[C@H](O)[C@@H](CO)NC)cc1', 'MAPK10 (human)', 'residual activity', 98);

Consider NC(=O)c1cc2c(-c3cccc(-c4ccccc4)c3)cnc(N)c2s1 . Its measured residual activity is 46

Recorded result, CCNc1nc(Nc2cc(F)c(C(=O)N3CCOCC3)cc2OC)ncc1C(F)(F)F , residual activity: 50

Documented residual activity of COC(=O)/C=C/C(=O)OC : 103

All values here come from the kinase profiling compilation of Christmann-Franck et al. (2016).
